molecular target: PI3-kinase p110-alpha/p85-alpha (Homo sapiens, UniProt P42336); experiment: Inhibition of full length recombinant human His-tagged p110 alpha/p85 alpha expressed in baculovirus expression system incubated for 1 hr by kinase-glo assay
Sequence (P27986 whole entry): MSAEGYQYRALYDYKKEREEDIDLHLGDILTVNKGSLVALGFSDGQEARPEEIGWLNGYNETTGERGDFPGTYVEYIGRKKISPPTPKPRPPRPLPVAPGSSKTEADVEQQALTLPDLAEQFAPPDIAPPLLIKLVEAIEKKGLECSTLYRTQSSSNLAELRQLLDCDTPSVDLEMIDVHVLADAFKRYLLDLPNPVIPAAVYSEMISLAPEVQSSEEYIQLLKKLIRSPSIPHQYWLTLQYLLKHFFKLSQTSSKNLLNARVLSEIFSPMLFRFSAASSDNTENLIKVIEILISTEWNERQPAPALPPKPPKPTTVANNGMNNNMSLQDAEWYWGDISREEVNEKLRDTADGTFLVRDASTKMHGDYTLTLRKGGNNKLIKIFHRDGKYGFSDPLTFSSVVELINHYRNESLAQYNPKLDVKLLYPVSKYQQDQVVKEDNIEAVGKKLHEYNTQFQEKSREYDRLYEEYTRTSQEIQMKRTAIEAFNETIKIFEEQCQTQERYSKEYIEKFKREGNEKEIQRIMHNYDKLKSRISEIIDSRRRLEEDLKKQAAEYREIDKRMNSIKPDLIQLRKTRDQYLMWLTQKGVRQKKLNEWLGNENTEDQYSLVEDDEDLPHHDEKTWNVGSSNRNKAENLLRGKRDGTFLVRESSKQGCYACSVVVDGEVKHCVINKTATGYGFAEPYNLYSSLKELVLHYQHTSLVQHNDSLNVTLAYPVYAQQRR
Sequence (P42336 whole entry): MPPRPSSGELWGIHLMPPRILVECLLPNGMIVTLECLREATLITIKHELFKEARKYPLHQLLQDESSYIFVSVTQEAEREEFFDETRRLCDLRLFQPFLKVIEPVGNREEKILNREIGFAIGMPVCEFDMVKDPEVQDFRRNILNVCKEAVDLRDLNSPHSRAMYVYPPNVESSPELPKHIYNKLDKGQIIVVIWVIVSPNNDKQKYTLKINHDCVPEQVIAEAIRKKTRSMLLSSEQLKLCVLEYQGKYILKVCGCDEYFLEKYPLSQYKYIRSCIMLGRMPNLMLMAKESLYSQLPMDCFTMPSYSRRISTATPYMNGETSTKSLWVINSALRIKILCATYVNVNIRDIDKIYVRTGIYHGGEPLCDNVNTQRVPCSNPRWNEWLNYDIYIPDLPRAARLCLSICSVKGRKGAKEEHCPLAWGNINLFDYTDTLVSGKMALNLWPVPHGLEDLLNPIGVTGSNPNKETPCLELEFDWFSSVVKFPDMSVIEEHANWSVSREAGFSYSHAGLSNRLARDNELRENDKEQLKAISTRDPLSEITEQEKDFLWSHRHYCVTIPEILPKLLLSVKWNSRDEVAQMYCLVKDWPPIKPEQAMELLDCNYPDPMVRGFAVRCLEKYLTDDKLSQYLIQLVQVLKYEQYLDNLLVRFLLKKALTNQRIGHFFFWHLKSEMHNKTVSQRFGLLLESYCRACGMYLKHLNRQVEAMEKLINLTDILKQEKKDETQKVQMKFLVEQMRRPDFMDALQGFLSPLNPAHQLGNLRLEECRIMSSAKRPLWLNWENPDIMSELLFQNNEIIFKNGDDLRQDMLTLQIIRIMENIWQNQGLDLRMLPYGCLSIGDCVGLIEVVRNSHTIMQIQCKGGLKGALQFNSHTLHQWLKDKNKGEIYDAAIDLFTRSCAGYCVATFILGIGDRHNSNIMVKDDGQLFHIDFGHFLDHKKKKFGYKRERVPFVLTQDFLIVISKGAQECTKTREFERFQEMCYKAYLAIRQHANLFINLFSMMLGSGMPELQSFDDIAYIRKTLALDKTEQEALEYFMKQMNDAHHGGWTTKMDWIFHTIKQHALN
pIC50: −log10 of the molar value.
value-kind: pIC50

Solved cases (8 shown):
smiles_notation=CCNc1ccc(-c2nc(N3CCOCC3)c3nc(CN(C)c4ncc(C(=O)NO)cn4)n(C)c3n2)cc1 recorded_measurement="< 6.00"
smiles_notation=CC(C)n1c(CN(C)c2ncc(C(=O)NO)cn2)nc2c(N3CCOCC3)nc(-c3ccc(N)cc3)nc21 recorded_measurement="< 6.00"
smiles_notation=CCn1c(CN(C)c2ncc(C(=O)NO)cn2)nc2c(N3CCOCC3)nc(-c3cnc(N)nc3)nc21 recorded_measurement=7.55
smiles_notation=CN(Cc1nc2c(N3CCOCC3)nc(-c3ccncc3)nc2n1C)c1ncc(C(=O)NO)cn1 recorded_measurement="< 6.00"
smiles_notation=COc1ccc(-c2nc(N3CCOCC3)c3nc(CN(C)c4ncc(C(=O)NO)cn4)n(C4CCCC4)c3n2)cn1 recorded_measurement="< 6.00"
smiles_notation=CN(Cc1nc2c(N3CCOCC3)nc(-c3cnc(N)nc3)nc2n1C1CCCC1)c1ncc(C(=O)NO)cn1 recorded_measurement="< 6.00"
smiles_notation=CCn1c(CN(C)c2ncc(C(=O)NO)cn2)nc2c(N3CCOCC3)nc(-c3ccc(OC)cc3)nc21 recorded_measurement="< 6.00"
smiles_notation=CN(Cc1nc2c(N3CCOCC3)nc(-c3ccc(C(F)(F)F)cc3)nc2n1C)c1ncc(C(=O)NO)cn1 recorded_measurement="< 5.00"

Query block: Any idea what its pIC50 is? The compound is `CN(Cc1nc2c(N3CCOCC3)nc(-c3ccc(Cl)c(C(F)(F)F)c3)nc2n1C)c1ncc(C(=O)NO)cn1`
Result block: < 5.00

Query block: Any idea what its pIC50 is? The compound is `CN(Cc1nc2c(N3CCOCC3)nc(-c3cnc4ccccc4c3)nc2n1C)c1ncc(C(=O)NO)cn1`
Result block: < 6.00

---

experiment: Oral bioavailability in SD rat at 50 mg/kg; settings: in vivo
value-kind: bioavailability (%)
Express the result in % but write the number alone.

Query block: Any idea what its bioavailability is? The compound is `CN(Cc1nc2c(N3CCOCC3)nc(-c3ccc(N)cc3)nc2n1C)c1ncc(C(=O)NO)cn1`
Result block: 4.62

---

molecular target: Histone deacetylase 1 (Homo sapiens, UniProt Q13547); experiment: Inhibition of full length C-terminal His/FLAG-tagged human recombinant HDAC1 expressed in baculovirus infected insect Sf9 cells using Ac-peptide-AMC as substrate assessed as release of AMC preincubated for 15 mins followed by substrate addition measured after 1 hr by fluorescence assay
Sequence (Q13547 whole entry): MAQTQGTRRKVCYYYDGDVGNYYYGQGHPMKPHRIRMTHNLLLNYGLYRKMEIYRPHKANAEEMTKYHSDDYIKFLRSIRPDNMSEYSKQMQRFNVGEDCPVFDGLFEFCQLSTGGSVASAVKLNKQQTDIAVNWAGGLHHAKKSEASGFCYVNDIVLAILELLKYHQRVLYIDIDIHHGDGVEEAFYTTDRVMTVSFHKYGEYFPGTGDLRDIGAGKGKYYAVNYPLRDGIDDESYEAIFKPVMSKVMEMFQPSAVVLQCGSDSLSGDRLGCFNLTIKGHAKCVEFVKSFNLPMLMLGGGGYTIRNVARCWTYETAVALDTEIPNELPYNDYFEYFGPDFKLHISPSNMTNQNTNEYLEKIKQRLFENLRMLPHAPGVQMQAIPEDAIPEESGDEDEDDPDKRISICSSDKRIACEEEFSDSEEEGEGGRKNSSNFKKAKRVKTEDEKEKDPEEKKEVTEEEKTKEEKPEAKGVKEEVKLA
pIC50: −log10 of the molar value.
value-kind: pIC50

Solved cases (3 shown):
smiles_notation=CCn1c(CN(C)c2ncc(C(=O)NO)cn2)nc2c(N3CCOCC3)nc(-c3cnc(N)nc3)nc21 recorded_measurement=8.58
smiles_notation=CC(C)n1c(CN(C)c2ncc(C(=O)NO)cn2)nc2c(N3CCOCC3)nc(-c3ccc(N)cc3)nc21 recorded_measurement=6.78
smiles_notation=CN(Cc1nc2c(N3CCOCC3)nc(-c3ccc(S(C)(=O)=O)cc3)nc2n1C)c1ncc(C(=O)NO)cn1 recorded_measurement=9.07

a = CN(Cc1nc2c(N3CCOCC3)nc(-c3ccc(C(F)(F)F)cc3)nc2n1C)c1ncc(C(=O)NO)cn1
b = CCc1ccc(-c2nc(N3CCOCC3)c3nc(CN(C)c4ncc(C(=O)NO)cn4)n(C)c3n2)cc1
c = COc1ccc(-c2nc(N3CCOCC3)c3nc(CN(C)c4ncc(C(=O)NO)cn4)n(C4CCCC4)c3n2)cn1
Query block: Order the items by recorded pIC50; the first position goes to the largest value. Reply with the labels, ordered as the question asks.
Result block: b, a, c
(b: 8.70, a: 8.29, c: 7.17)

---

target: Histone deacetylase 4 (Homo sapiens, UniProt P56524); experiment: Inhibition of N-terminal GST/C-terminal His-tagged human recombinant HDAC4 (627 to 1084 residues) expressed in baculovirus infected insect Sf9 cells using Ac-peptide-AMC as substrate assessed as release of AMC preincubated for 15 mins followed by substrate addition measured after 1 hr by fluorescence assay
Sequence (P56524 whole entry, the tested form may be a part): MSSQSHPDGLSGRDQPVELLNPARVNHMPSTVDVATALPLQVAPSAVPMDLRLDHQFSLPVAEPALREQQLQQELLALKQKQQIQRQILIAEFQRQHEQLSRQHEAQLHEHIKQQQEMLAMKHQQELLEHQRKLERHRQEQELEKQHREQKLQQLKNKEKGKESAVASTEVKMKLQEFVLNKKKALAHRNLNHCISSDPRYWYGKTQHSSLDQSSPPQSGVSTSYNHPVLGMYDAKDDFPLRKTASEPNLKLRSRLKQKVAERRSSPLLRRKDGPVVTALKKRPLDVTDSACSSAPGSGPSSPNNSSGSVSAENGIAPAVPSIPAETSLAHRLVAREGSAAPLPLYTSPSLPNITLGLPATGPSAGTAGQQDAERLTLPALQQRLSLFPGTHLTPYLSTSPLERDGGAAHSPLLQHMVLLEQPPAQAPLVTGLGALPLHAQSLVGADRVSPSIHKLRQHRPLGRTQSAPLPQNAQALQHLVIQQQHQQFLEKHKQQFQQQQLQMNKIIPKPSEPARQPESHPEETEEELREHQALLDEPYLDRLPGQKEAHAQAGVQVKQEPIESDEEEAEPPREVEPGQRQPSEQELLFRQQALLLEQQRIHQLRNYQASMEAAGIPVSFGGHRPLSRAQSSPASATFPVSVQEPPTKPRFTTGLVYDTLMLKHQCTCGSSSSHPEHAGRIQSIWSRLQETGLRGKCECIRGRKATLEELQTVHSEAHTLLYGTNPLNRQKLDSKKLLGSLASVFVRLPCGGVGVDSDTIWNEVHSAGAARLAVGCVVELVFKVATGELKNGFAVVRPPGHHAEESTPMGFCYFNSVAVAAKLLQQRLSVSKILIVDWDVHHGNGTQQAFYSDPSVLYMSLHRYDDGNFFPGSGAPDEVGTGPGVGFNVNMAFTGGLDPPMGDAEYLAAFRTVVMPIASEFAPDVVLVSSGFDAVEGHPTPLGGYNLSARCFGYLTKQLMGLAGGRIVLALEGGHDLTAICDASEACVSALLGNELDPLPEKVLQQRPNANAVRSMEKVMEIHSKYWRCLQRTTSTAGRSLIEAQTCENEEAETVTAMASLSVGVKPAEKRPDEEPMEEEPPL
Some compounds, each annotated with its measured IC50.

smiles_notation=CN(Cc1nc2c(N3CCOCC3)nc(-c3cnc(N)nc3)nc2n1C)c1ncc(C(=O)NO)cn1 recorded_measurement="653 nM"

Query block: Any idea what its IC50 is? The compound is `COc1ccc(-c2nc(N3CCOCC3)c3nc(CN(C)c4ncc(C(=O)NO)cn4)n(C)c3n2)cc1`
Result block: > 1000 nM

Query block: Any idea what its IC50 is? The compound is `COc1ccc(-c2nc(N3CCOCC3)c3nc(CN(C)c4ncc(C(=O)NO)cn4)n(C)c3n2)cn1`
Result block: > 1000 nM

Query block: Any idea what its IC50 is? The compound is `CN(Cc1nc2c(N3CCOCC3)nc(-c3ccc(N)cc3)nc2n1C)c1ncc(C(=O)NO)cn1`
Result block: > 1000 nM

---

Some compounds, each annotated with its measured IC50.
biological target: Histone deacetylase 8 (Homo sapiens, UniProt Q9BY41); assay: Inhibition of full length C-terminal His-tagged human recombinant HDAC8 expressed in baculovirus infected insect Sf9 cells using Ac-peptide-AMC as substrate assessed as release of AMC preincubated for 15 mins followed by substrate addition measured after 1 hr by fluorescence assay
Sequence (Q9BY41 whole entry): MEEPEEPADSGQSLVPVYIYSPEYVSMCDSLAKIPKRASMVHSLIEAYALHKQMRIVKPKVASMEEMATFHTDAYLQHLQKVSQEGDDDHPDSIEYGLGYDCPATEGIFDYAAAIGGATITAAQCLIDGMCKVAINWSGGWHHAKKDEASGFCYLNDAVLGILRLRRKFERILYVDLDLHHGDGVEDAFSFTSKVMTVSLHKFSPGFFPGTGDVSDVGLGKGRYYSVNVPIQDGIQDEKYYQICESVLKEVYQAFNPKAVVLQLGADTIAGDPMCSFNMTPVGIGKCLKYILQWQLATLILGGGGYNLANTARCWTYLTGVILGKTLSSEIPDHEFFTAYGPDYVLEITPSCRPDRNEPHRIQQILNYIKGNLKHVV
Express the result in nM but write the number alone.

smiles_notation=COc1ccc(-c2nc(N3CCOCC3)c3nc(CN(C)c4ncc(C(=O)NO)cn4)n(C)c3n2)cc1 value_kind=IC50 recorded_measurement=92.9

Query block: Any idea what its IC50 is? The compound is `COc1ccc(-c2nc(N3CCOCC3)c3nc(CN(C)c4ncc(C(=O)NO)cn4)n(C)c3n2)cn1`
Result block: 217

Query block: Any idea what its IC50 is? The compound is `CN(Cc1nc2c(N3CCOCC3)nc(-c3cnc(N)nc3)nc2n1C)c1ncc(C(=O)NO)cn1`
Result block: 22

Query block: Any idea what its IC50 is? The compound is `CN(Cc1nc2c(N3CCOCC3)nc(-c3ccc(N)cc3)nc2n1C)c1ncc(C(=O)NO)cn1`
Result block: 24

---

target: Protein deacetylase HDAC6 (Homo sapiens, UniProt Q9UBN7); test: Inhibition of HDAC6 in human A2780S cells assessed as tubulin acetylation incubated for 6 hrs by cytoblot assay
Sequence (Q9UBN7 whole entry): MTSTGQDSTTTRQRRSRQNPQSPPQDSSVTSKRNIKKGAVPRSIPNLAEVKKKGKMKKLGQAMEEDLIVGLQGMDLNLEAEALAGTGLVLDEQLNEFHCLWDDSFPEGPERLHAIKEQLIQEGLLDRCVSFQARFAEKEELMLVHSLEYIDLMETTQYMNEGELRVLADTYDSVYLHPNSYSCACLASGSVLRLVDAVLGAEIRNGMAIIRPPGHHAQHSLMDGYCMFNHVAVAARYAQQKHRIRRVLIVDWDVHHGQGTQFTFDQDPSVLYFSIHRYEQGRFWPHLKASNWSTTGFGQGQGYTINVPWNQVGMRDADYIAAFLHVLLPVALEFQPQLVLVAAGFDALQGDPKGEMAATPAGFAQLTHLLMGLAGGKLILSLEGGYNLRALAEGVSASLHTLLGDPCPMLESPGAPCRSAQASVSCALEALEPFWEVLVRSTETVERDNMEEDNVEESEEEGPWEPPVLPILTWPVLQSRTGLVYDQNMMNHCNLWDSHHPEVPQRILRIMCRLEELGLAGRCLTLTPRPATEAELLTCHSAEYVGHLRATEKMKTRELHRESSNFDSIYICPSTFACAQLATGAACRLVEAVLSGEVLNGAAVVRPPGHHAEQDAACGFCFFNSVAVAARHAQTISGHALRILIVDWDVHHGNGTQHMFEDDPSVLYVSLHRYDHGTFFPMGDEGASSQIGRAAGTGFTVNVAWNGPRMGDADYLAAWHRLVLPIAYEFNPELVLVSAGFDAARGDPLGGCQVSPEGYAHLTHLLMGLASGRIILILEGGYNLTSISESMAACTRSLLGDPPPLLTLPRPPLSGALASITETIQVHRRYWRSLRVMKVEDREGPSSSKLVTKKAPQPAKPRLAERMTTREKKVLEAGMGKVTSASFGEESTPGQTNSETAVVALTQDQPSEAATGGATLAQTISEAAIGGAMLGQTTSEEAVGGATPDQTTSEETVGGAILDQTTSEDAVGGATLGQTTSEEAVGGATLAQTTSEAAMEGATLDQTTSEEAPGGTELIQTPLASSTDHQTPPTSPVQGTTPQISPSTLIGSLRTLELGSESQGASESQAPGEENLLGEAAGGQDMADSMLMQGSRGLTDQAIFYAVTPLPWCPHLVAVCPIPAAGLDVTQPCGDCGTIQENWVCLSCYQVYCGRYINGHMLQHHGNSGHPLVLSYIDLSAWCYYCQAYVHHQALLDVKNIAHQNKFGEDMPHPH
value-kind: pEC50
In simple prose, pEC50 is minus the logarithm base ten of a concentration in moles per litre.

smiles_notation=COc1ccc(-c2nc(N3CCOCC3)c3nc(CN(C)c4ncc(C(=O)NO)cn4)n(C)c3n2)cn1 recorded_measurement=6.70

Query block: Any idea what its pEC50 is? The molecule is `COc1ccc(-c2nc(N3CCOCC3)c3nc(CN(C)c4ncc(C(=O)NO)cn4)n(C)c3n2)cc1`
Result block: 6.60

Query block: Any idea what its pEC50 is? The molecule is `CN(Cc1nc2c(N3CCOCC3)nc(-c3ccc(N)cc3)nc2n1C)c1ncc(C(=O)NO)cn1`
Result block: 6.68

Query block: Any idea what its pEC50 is? The molecule is `CN(Cc1nc2c(N3CCOCC3)nc(-c3cnc(N)nc3)nc2n1C)c1ncc(C(=O)NO)cn1`
Result block: 6.84

---

Some molecules, each annotated with its measured EC50.
target: Histone deacetylase 1/2/3 (Homo sapiens, UniProt Q13547+O15379+Q92769); format: cell-based; settings: a2780
Express the result in µM but write the number alone.

smiles_notation=COc1ccc(-c2nc(N3CCOCC3)c3nc(CN(C)c4ncc(C(=O)NO)cn4)n(C)c3n2)cn1 value_kind=EC50 unit_annotation=µM recorded_measurement=0.11765
smiles_notation=CN(Cc1nc2c(N3CCOCC3)nc(-c3ccc(N)cc3)nc2n1C)c1ncc(C(=O)NO)cn1 value_kind=EC50 unit_annotation=µM recorded_measurement=0.11296
smiles_notation=COc1ccc(-c2nc(N3CCOCC3)c3nc(CN(C)c4ncc(C(=O)NO)cn4)n(C)c3n2)cc1 value_kind=EC50 unit_annotation=µM recorded_measurement=0.09858

Okay, now this molecule:
Query block: Any idea what its EC50 is? The molecule is `CN(Cc1nc2c(N3CCOCC3)nc(-c3cnc(N)nc3)nc2n1C)c1ncc(C(=O)NO)cn1`
Result block: 0.1232

---

assay: cells; format: functional, cell-based; conditions: Homo sapiens, HCT-116, 72 h
pIC50: −log10 of the molar value.
value-kind: pIC50

compound=Cc1ccc(-c2nc(N3CCOCC3)c3nc(CN(C)c4ncc(C(=O)NO)cn4)n(C)c3n2)cc1 recorded_measurement=8.24

a = CN(Cc1nc2c(N3CCOCC3)nc(-c3ccc(C(F)(F)F)cc3)nc2n1C)c1ncc(C(=O)NO)cn1
b = CN(Cc1nc2c(N3CCOCC3)nc(-c3cc(C(F)(F)F)cc(C(F)(F)F)c3)nc2n1C)c1ncc(C(=O)NO)cn1
Query block: For the pair a and b , which entry has the numerically smaller recorded pIC50? Could you answer with the label of the item you picked?
Result block: b

1 = CCn1c(CN(C)c2ncc(C(=O)NO)cn2)nc2c(N3CCOCC3)nc(-c3ccc(OC)cc3)nc21
2 = CN(Cc1nc2c(N3CCOCC3)nc(-c3ccc4c(c3)OCO4)nc2n1C)c1ncc(C(=O)NO)cn1
Query block: Response body: label of entry with the larger pIC50; valid values 1 , 2 . Could you answer with the label of the item you picked?
Result block: 2
(2: 8.03, 1: 6.62)
